target: T1, monoclonal antibody 21-4-3; test: Biacore, captured 21-4-3
T1 construct: mouse IgG1 heavy chain, kappa light chain; also called mAb21-4-3; produced by hybridoma ABH0015 (LMBP-9680-CB)

| binder | binding vs Reference Sequence (=100%) |
| --- | --- |
| SEQ ID NO 74 (VHH, C-terminal: G) VHH: EVQLVESGGGLVQPGGSLRLSCAASRSIGRLDRMGWYRHRPGEPRELVATITGGSSINYGDSVKGRFTISIDNSKNTVYLQMNSLRPEDTAVYYCNFNKYVTSRDTWGQGTLVTVSS | 1 |
| SEQ ID NO 70 (VHH, T110Q) VHH: EVQLVESGGGLVQPGGSLRLSCAASRSIGRLDRMGWYRHRPGEPRELVATITGGSSINYGDSVKGRFTISIDNSKNTVYLQMNSLRPEDTAVYYCNFNKYVTSRDTWGQGTLVQVSS | 106 |
| SEQ ID NO 69 (VHH, L108Q) VHH: EVQLVESGGGLVQPGGSLRLSCAASRSIGRLDRMGWYRHRPGEPRELVATITGGSSINYGDSVKGRFTISIDNSKNTVYLQMNSLRPEDTAVYYCNFNKYVTSRDTWGQGTQVTVSS | 106 |
| SEQ ID NO 49 (VHH, C-terminal tag plus humanizing mutations) VHH: EVQLLESGGGLVQPGGSLRLSCAASGLPFSTKSMGWFRQAPGKGREFVSRISPGGTSRYYGDFVKGRFTISRDNSKNTLYLQMNSLRAEDTAVYYCASGERSTYIGSNYYRTNEYDYWGQGTLVTVSS | 4 |
